molecular target: CDK1/Cyclin B1 (Homo sapiens); assay: CDK1/Cyclin B1 Biochemical Assay (TR-FRET), 0.015 mM ATP; settings: 0.15 μM Rb (Ser780)-biotin substrate, pH7.0, 60 min preincubation, 120 min reaction, room temperature
Sequence (P06493 whole entry): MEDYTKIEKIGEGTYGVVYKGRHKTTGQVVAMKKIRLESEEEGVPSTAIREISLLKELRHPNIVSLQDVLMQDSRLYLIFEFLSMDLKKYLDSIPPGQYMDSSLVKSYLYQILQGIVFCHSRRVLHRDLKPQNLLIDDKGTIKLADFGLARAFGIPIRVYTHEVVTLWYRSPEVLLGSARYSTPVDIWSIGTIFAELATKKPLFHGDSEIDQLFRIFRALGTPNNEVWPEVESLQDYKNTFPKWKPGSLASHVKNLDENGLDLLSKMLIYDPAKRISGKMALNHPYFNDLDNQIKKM
Sequence (P14635 whole entry partner): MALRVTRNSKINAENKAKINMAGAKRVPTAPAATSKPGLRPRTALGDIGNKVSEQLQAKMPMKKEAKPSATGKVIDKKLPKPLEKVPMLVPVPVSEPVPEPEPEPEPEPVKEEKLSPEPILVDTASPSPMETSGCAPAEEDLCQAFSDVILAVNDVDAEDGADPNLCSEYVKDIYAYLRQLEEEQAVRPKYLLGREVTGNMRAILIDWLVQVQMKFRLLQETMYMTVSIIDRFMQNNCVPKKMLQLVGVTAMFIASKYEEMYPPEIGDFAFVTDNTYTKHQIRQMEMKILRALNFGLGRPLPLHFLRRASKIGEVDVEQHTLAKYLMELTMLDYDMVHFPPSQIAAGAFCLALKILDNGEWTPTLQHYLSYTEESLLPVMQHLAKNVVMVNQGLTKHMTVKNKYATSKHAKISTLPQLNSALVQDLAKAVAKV
Reported pIC50 values follow for various compounds
// pIC50 is dimensionless: -log10 of concentration (M)

compound: CCCNC(=O)O[C@H]1CC[C@@H](c2cc(Nc3ccc4c(c3Cl)CNS4(=O)=O)n[nH]2)C1 (racemic) [Example 39]
assay system: CDK1/Cyclin B1 (Homo sapiens)
pIC50: 6.43
--
compound: CC1(NC(=O)O[C@H]2CC[C@@H](c3cc(Nc4ccc5c(c4)CNS5(=O)=O)n[nH]3)C2)CC1 (relative stereo) [Example 177]
assay system: CDK1/Cyclin B1 (Homo sapiens)
pIC50: 7.57
--
compound: CC(C)NC(=O)O[C@H]1CC[C@@H](c2cc(Nc3cc4c(cc3F)CNS4(=O)=O)n[nH]2)C1 (single isomer, unassigned) [Example 1b]
assay system: CDK1/Cyclin B1 (Homo sapiens)
pIC50: 6.59
--
compound: CC(C)NC(=O)O[C@H]1CC[C@@H](c2cc(Nc3ccc4c(c3F)CN(CC(F)(F)F)S4(=O)=O)n[nH]2)C1 (relative stereo) [Example 66]
assay system: CDK1/Cyclin B1 (Homo sapiens)
pIC50: 6.39
--
compound: Cc1c(Nc2cc([C@@H]3CC[C@H](OC(=O)NC(C)C)C3)[nH]n2)ccc2c1CN(CCO)S2(=O)=O (relative stereo) [Example 37]
assay system: CDK1/Cyclin B1 (Homo sapiens)
pIC50: 6.50
--
compound: CCCNC(=O)O[C@H]1CC[C@@H](c2cc(Nc3ccc4c(c3)CNS4(=O)=O)n[nH]2)C1 (relative stereo) [Example 178]
assay system: CDK1/Cyclin B1 (Homo sapiens)
pIC50: 7.39
--
compound: CC1(NC(=O)O[C@H]2CC[C@@H](c3cc(Nc4ccc5c(c4F)CNS5(=O)=O)n[nH]3)C2)CCOC1 (mixture of isomers) [Example 162]
assay system: CDK1/Cyclin B1 (Homo sapiens)
pIC50: 6.79
--
compound: Cc1c(Nc2cc([C@@H]3CC[C@H](OC(=O)NC(C)C)C3)[nH]n2)ccc2c1S(=O)(=O)NC2 (relative stereo) [Example 353]
assay system: CDK1/Cyclin B1 (Homo sapiens)
pIC50: 7.03

[ask] Give reported pIC50 for CC1(NC(=O)O[C@H]2CC[C@@H](c3cc(Nc4ccc5c(c4F)CNS5(=O)=O)n[nH]3)C2)COC1 (racemic) [Example 164] (CDK1/Cyclin B1 (Homo sapiens))
[reply] 6.53

[ask] Give reported pIC50 for CC(C)NC(=O)O[C@H]1CC[C@@H](c2cc(Nc3cnc4c(c3)CNS4(=O)=O)n[nH]2)C1 (relative stereo) [Example 31] (CDK1/Cyclin B1 (Homo sapiens))
[reply] 6.78

[ask] Give reported pIC50 for CC(C)NC(=O)O[C@H]1CC[C@@H](c2cc(Nc3ccc4c(c3)CS(=O)(=O)N4C(C)C3CCOC3)n[nH]2)C1 (relative stereo) [Example 218] (CDK1/Cyclin B1 (Homo sapiens))
[reply] 6.00

[ask] Give reported pIC50 for CC1(NC(=O)O[C@H]2CC[C@@H](c3cc(Nc4ccc5c(c4)CS(=O)(=O)N5)n[nH]3)C2)CC1 (relative stereo) [Example 232] (CDK1/Cyclin B1 (Homo sapiens))
[reply] 7.57

[ask] Give reported pIC50 for CC(C)NC(=O)OC1CC(c2cc(Nc3ccc4c(c3)CNS4(=O)=O)n[nH]2)C1 (stereo not shown) [Example 173] (CDK1/Cyclin B1 (Homo sapiens))
[reply] 7.14
